Exercise: state measured Minus NSB* for each of the molecules provided.
System tested: mu opiate receptor (Rattus norvegicus)
Construct: from tissue; host or cells: rat brain membranes/homogenate
Sequence (P33535 whole entry): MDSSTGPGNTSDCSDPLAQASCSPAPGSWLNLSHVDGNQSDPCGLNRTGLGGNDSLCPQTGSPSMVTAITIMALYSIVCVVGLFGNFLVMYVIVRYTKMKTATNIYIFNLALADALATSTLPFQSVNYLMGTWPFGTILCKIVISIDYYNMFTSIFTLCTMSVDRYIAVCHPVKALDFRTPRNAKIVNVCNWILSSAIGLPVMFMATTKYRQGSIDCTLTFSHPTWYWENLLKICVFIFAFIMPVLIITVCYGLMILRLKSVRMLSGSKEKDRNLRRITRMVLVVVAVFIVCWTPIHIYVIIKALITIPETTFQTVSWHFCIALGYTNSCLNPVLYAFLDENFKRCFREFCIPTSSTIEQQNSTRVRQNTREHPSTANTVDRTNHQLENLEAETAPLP
Test: Inhibition of [3H]DAMGO binding to the mu opiate receptor in rat brain homogenates
Study conditions: mean minus non-specific binding; 0.08 mg of compound per milliliter, 7 nM 3H-labeled DAMGO, rat brain membranes
Response field accepts a number only; no unit should be typed.

Lab note: need Minus NSB* for Cc1nc(CC(C)C)c2n1C(C(C)C)C(=O)N2 (centres unmarked) [Pool 53] on mu opiate receptor (Rattus norvegicus), anyone have it? 680.95

Lab note: need Minus NSB* for COc1ccc(Cc2nc(C(C)C)c3n2C(C(C)C)C(=O)N3)cc1OC (racemic) on mu opiate receptor (Rattus norvegicus), anyone have it? 562.35

Lab note: need Minus NSB* for Cc1cccc(Cc2nc(C(C)C)c3n2C(C(C)C)C(=O)N3)c1 (racemic) on mu opiate receptor (Rattus norvegicus), anyone have it? 646.15

Lab note: need Minus NSB* for Cc1nc(C(C)C)c2n1C(C(C)C)C(=O)N2 (centres unmarked) [Pool 19] on mu opiate receptor (Rattus norvegicus), anyone have it? 719.75

Lab note: need Minus NSB* for CCCC1C(=O)Nc2c(C(C)C)nc(C)n21 (centres unmarked) [Pool 28] on mu opiate receptor (Rattus norvegicus), anyone have it? 624.90

====

Exercise: state measured Mean for each of the compounds provided.
System tested: kappa opiate receptor (Cavia porcellus)
Construct: guinea pig cortices and cerebella were homogenized in 40 mL of Buffer A; from tissue; host or cells: guinea pig cortices and cerebella, crude membrane suspension
Sequence (P41144 whole entry): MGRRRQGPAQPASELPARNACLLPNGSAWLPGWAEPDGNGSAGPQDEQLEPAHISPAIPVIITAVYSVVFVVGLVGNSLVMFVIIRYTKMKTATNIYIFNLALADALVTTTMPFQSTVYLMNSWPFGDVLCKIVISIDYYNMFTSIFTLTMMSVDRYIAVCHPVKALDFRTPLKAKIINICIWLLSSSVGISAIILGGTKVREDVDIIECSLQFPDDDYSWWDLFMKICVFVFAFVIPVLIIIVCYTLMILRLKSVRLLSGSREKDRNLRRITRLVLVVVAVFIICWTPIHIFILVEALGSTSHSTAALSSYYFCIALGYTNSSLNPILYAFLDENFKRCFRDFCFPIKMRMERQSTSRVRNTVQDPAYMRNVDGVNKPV
Test: Inhibition of tritiated U69,593 binding to the kappa opiate receptor in guinea pig brain homogenates
Design: unit not given beside the values
Study conditions: mean bound radioactivity of [3H]U69,593; 3 nm tritiated U69,593, guinea pig brain membranes, 2.5 hours 25° C.
Response field accepts a number only; no unit should be typed.

Lab note: need Mean for CC(C)c1nc(Cc2cccc(F)c2)n2c1NC(=O)C2C(C)C (racemic) on kappa opiate receptor (Cavia porcellus), anyone have it? 1541.5

Lab note: need Mean for CCCC1C(=O)Nc2c(C(C)C)nc(C)n21 (centres unmarked) [Pool 12] on kappa opiate receptor (Cavia porcellus), anyone have it? 1680.95

Lab note: need Mean for Cc1nc(C(C)C)c2n1C(C)C(=O)N2 (centres unmarked) on kappa opiate receptor (Cavia porcellus), anyone have it? 1818.85

Lab note: need Mean for Cc1nc(C(C)C)c2n1C(C(C)C)C(=O)N2 (centres unmarked) [Pool 52] on kappa opiate receptor (Cavia porcellus), anyone have it? 1681.35

Lab note: need Mean for Cc1nc(CC2CCCCC2)c2n1C(C(C)C)C(=O)N2 (centres unmarked) [Pool 46] on kappa opiate receptor (Cavia porcellus), anyone have it? 2169

Lab note: need Mean for Cc1ccc(Cc2nc(C(C)C)c3n2C(C(C)C)C(=O)N3)cc1 (racemic) on kappa opiate receptor (Cavia porcellus), anyone have it? 1407.25

Lab note: need Mean for Cc1nc(CC2CCCCC2)c2n1C(C(C)C)C(=O)N2 (racemic) [Pool 62] on kappa opiate receptor (Cavia porcellus), anyone have it? 1776.3

Lab note: need Mean for CCCC1C(=O)Nc2c(C(C)C)nc(C)n21 (centres unmarked) [Pool 28] on kappa opiate receptor (Cavia porcellus), anyone have it? 1607.35

Lab note: need Mean for CCC(c1ccccc1)c1nc(C(C)C)c2n1C(C(C)C)C(=O)N2 (mixture of isomers) on kappa opiate receptor (Cavia porcellus), anyone have it? 2013.3

Lab note: need Mean for CCCCC(CC)c1nc(C(C)C)c2n1C(C(C)C)C(=O)N2 (mixture of isomers) on kappa opiate receptor (Cavia porcellus), anyone have it? 1503.35

Lab note: need Mean for Cc1nc(CC(C)C)c2n1C(C(C)C)C(=O)N2 (centres unmarked) [Pool 37] on kappa opiate receptor (Cavia porcellus), anyone have it? 1559.4

Lab note: need Mean for CC(C)c1nc(Cc2ccc(F)cc2)n2c1NC(=O)C2C(C)C (racemic) on kappa opiate receptor (Cavia porcellus), anyone have it? 1643.95

Lab note: need Mean for CCCCc1nc(C)n2c1NC(=O)C2C(C)C (centres unmarked) [Pool 44] on kappa opiate receptor (Cavia porcellus), anyone have it? 2049.7

Lab note: need Mean for CCC(C)C1C(=O)Nc2c(C(C)C)nc(C)n21 (centres unmarked) [Pool 5] on kappa opiate receptor (Cavia porcellus), anyone have it? 1684.45

Lab note: need Mean for CC(C)c1nc(C(C)C)n2c1NC(=O)C2C(C)C (racemic) on kappa opiate receptor (Cavia porcellus), anyone have it? 1498.8

Lab note: need Mean for CC(C)c1nc(CCC2CCCC2)n2c1NC(=O)C2C(C)C (centres unmarked) on kappa opiate receptor (Cavia porcellus), anyone have it? 1622.75

Lab note: need Mean for COc1cccc(Cc2nc(C(C)C)c3n2C(C(C)C)C(=O)N3)c1 (racemic) on kappa opiate receptor (Cavia porcellus), anyone have it? 1859.1

Lab note: need Mean for Cc1nc(C)n2c1NC(=O)C2C(C)C (centres unmarked) [Pool 35] on kappa opiate receptor (Cavia porcellus), anyone have it? 1711.9

Lab note: need Mean for CC(C)c1nc(Cc2ccc(Br)cc2)n2c1NC(=O)C2C(C)C (racemic) on kappa opiate receptor (Cavia porcellus), anyone have it? 1670.1

Lab note: need Mean for CC(C)c1nc(C(C)(C)C)n2c1NC(=O)C2C(C)C (centres unmarked) on kappa opiate receptor (Cavia porcellus), anyone have it? 1623.6

Lab note: need Mean for Cc1nc(CO)c2n1C(C(C)C)C(=O)N2 (centres unmarked) on kappa opiate receptor (Cavia porcellus), anyone have it? 1723.65

Lab note: need Mean for CCCCC1C(=O)Nc2c(C(C)C)nc(C)n21 (centres unmarked) [Pool 27] on kappa opiate receptor (Cavia porcellus), anyone have it? 1734.3

Lab note: need Mean for CSCCc1nc(C)n2c1NC(=O)C2C(C)C (racemic) on kappa opiate receptor (Cavia porcellus), anyone have it? 1724.95

Lab note: need Mean for Cc1nc(C(C)C)c2n1C(CC1CCCCC1)C(=O)N2 (centres unmarked) on kappa opiate receptor (Cavia porcellus), anyone have it? 1821.55

Lab note: need Mean for CCCCc1nc(C)n2c1NC(=O)C2C(C)C (racemic) [Pool 60] on kappa opiate receptor (Cavia porcellus), anyone have it? 1755.4

Lab note: need Mean for CC(C)c1nc(CC2CCCCC2)n2c1NC(=O)C2C(C)C (centres unmarked) on kappa opiate receptor (Cavia porcellus), anyone have it? 1639.3

Lab note: need Mean for Cc1nc(Cc2ccc(O)cc2)c2n1C(C(C)C)C(=O)N2 (centres unmarked) [Pool 48] on kappa opiate receptor (Cavia porcellus), anyone have it? 1784

Lab note: need Mean for CCCc1nc(C)n2c1NC(=O)C2C(C)C (centres unmarked) [Pool 45] on kappa opiate receptor (Cavia porcellus), anyone have it? 1790.45

Lab note: need Mean for Cc1ncc2n1C(C(C)C)C(=O)N2 (centres unmarked) on kappa opiate receptor (Cavia porcellus), anyone have it? 1726.65

Lab note: need Mean for COc1ccc(Cc2nc(C(C)C)c3n2C(C(C)C)C(=O)N3)cc1OC (racemic) on kappa opiate receptor (Cavia porcellus), anyone have it? 1749.65

Lab note: need Mean for Cc1nc(C(C)C)c2n1C(C(C)C)C(=O)N2 (centres unmarked) [Pool 142] on kappa opiate receptor (Cavia porcellus), anyone have it? 1728.8

Lab note: need Mean for CC(C)c1nc(Cc2cc(C(F)(F)F)cc(C(F)(F)F)c2)n2c1NC(=O)C2C(C)C (racemic) on kappa opiate receptor (Cavia porcellus), anyone have it? 1638.3

Lab note: need Mean for CCC(CC)c1nc(C(C)C)c2n1C(C(C)C)C(=O)N2 (centres unmarked) on kappa opiate receptor (Cavia porcellus), anyone have it? 1473.05

Lab note: need Mean for Cc1nc(C(C)C)c2n1C(CC(C)C)C(=O)N2 (centres unmarked) [Pool 20] on kappa opiate receptor (Cavia porcellus), anyone have it? 1621.8

Lab note: need Mean for CCOc1ccc(Cc2nc(C(C)C)c3n2C(C(C)C)C(=O)N3)cc1 (racemic) on kappa opiate receptor (Cavia porcellus), anyone have it? 1842.9

Lab note: need Mean for CC(C)c1nc(CCCc2ccccc2)n2c1NC(=O)C2C(C)C (racemic) on kappa opiate receptor (Cavia porcellus), anyone have it? 1545.15

Lab note: need Mean for CC(C)c1nc(CC(C)c2ccccc2)n2c1NC(=O)C2C(C)C (mixture of isomers) on kappa opiate receptor (Cavia porcellus), anyone have it? 1602.75

Lab note: need Mean for Cc1nc(C(C)C)c2n1C(C(C)C)C(=O)N2 (centres unmarked) [Pool 19] on kappa opiate receptor (Cavia porcellus), anyone have it? 1783.25

Lab note: need Mean for Cc1nc(CCCCN)c2n1C(C(C)C)C(=O)N2 (centres unmarked) on kappa opiate receptor (Cavia porcellus), anyone have it? 1444.2

Lab note: need Mean for CC(C)c1nc(CCC2CCCCC2)n2c1NC(=O)C2C(C)C (centres unmarked) on kappa opiate receptor (Cavia porcellus), anyone have it? 1839.1

Lab note: need Mean for Cc1nc(Cc2ccccc2)c2n1C(C(C)C)C(=O)N2 (centres unmarked) [Pool 47] on kappa opiate receptor (Cavia porcellus), anyone have it? 1989.3

Measured values drawn from patent US6545032B1 for this set.
